B1: LINE1-full (parent)
chain: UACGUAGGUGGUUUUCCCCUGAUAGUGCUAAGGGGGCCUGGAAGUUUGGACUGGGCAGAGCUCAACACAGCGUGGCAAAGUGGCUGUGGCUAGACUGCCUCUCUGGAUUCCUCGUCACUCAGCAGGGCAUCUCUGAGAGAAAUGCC

# Variants of: B1
# assay method text: self-cleavage, relative activity (ratio to wild type); higher = more cleavage; in vitro, sequencing; the parent is a self-cleaving ribozyme
property name: self-cleavage

The cases that follow already have their self-cleavage on record.
mutation annotation: U104C C145G
endpoint result: 2.3

mutation annotation: C28U A94G
endpoint result: 0.3

mutation annotation: A79G G82U
endpoint result: 1.32

Task: Sample A59U U62G — what was its self-cleavage?
Result: 0.04

Task: Try this variant next: A59G A121U
Result: 0.08

Task: Try this variant next: A64G A67G
Result: 0.09
